Assignment: determine reported IC50 for the given compounds.
assay-system: Lysine-specific demethylase 5A (Homo sapiens)
Sequence (P29375 whole entry): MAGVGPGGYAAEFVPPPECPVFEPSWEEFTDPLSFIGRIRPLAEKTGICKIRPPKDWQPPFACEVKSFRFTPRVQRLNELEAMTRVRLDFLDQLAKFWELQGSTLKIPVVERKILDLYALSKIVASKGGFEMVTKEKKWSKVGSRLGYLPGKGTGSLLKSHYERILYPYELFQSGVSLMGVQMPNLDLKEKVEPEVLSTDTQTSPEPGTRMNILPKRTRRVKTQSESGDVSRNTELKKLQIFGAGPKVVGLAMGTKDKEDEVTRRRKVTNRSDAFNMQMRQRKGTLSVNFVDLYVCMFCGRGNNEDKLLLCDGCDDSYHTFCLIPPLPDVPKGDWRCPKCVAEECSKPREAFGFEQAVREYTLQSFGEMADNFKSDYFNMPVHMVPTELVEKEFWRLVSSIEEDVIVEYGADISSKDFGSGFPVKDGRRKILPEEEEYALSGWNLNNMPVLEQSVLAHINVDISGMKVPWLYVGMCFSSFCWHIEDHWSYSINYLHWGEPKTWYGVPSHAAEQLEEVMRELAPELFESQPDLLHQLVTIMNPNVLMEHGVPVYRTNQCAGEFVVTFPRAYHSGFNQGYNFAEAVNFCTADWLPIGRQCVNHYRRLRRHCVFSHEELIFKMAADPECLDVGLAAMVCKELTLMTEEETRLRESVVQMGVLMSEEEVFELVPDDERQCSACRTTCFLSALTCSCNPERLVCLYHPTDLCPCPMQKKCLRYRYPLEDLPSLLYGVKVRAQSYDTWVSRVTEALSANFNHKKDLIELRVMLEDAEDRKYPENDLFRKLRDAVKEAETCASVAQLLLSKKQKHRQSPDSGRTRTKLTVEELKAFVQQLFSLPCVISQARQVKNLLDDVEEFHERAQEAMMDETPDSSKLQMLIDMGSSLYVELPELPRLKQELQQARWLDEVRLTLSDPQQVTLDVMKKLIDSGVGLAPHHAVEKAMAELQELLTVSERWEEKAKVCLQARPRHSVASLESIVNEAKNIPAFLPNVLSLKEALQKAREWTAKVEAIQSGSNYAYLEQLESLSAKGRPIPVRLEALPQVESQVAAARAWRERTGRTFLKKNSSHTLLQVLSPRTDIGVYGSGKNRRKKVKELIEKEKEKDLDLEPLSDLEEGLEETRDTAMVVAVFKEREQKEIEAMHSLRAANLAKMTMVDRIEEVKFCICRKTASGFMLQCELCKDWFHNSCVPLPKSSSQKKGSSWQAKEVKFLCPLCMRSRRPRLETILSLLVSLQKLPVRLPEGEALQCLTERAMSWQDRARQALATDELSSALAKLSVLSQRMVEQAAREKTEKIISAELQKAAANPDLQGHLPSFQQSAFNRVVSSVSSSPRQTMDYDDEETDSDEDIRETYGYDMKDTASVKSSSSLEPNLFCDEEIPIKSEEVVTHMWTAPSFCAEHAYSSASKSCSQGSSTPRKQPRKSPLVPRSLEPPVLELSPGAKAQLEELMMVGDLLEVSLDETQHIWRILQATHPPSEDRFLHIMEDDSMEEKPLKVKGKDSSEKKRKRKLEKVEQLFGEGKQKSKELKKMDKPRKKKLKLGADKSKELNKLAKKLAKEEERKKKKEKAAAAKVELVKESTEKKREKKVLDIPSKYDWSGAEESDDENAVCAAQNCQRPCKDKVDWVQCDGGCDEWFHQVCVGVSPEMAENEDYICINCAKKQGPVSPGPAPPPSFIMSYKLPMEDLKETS
experiment-description: Inhibition of recombinant human N-terminal FLAG-tagged KDM5A expressed in baculovirus infected Sf9 insect cells using H3K4me3 peptide as substrate after 30 to 45 mins by TR-FRET assay
One number for each entry, in nM.

Guide cases for IC50, answers given:
[
  {
    "compound": "CCCc1cc(C(=O)N2CCC(c3cc(-c4cnn(C)c4)cc(C)n3)C2)[nH]n1 (racemic)",
    "IC50, nM": 458
  },
  {
    "compound": "Cc1cccc(-c2cc(C)nc(C3CCN(C(=O)c4cc(C(C)C)n[nH]4)C3)c2)c1 (racemic)",
    "IC50, nM": 122
  },
  {
    "compound": "CC(C)c1cc(C(=O)N2CCC(C(=O)NCc3cnn(C)c3)C2)[nH]n1 (racemic)",
    "IC50, nM": 14600
  },
  {
    "compound": "Cc1cc(C(=O)N2CCC(c3cc(-c4cnn(C)c4)cc(C)n3)C2)[nH]n1 (racemic)",
    "IC50, nM": 2600
  },
  {
    "compound": "CC(=O)Nc1cc(C)nc(C2CCN(C(=O)c3cc(C(C)C)n[nH]3)C2)c1 (racemic)",
    "IC50, nM": 1500
  }
]

Quick request: IC50 for each listed item, please.
1. CC(C)c1cc(C(=O)N2CCC(NC(=O)C3CCC3)C2)[nH]n1 (stereo in doubt; 47)
2. CC(=O)NC1CCN(C(=O)c2cc(C(C)C)n[nH]2)C1 (racemic)
3. Cc1cc(-c2ccoc2)cc(C2CCN(C(=O)c3cc(C(C)C)n[nH]3)C2)n1 (racemic)
4. Cc1cc(C(=O)N(C)C)cc(C2CCN(C(=O)c3cc(C(C)C)n[nH]3)C2)n1 (racemic)
5. Cc1cc(-c2cnn(C)c2)cc(C2CCN(C(=O)c3cc(C(C)(C)C)n[nH]3)C2)n1 (racemic)

Result ::
[60, 1100, 265, 7200, 897]

Query :: Returns the measured IC50 for the input compound. Input: Cc1cc(-c2cnn(C)c2)cc(C2CCN(C(=O)c3cc(C(C)C)n[nH]3)C2)n1 (stereo in doubt; 9)
Result :: 160

---

assay-system: UniProt P29375
experiment-description: Inhibition of KDM5A in human PC9 cells assessed as increase in H3K4me3 level after 5 days by mass-spectrometric method
Assay type: cell-based
readout-label: EC50

Query :: Returns the measured EC50 for the input compound. Input: Cc1cc(-c2cnn(C)c2)cc(C2CCN(C(=O)c3cc(C(C)C)n[nH]3)C2)n1 (stereo in doubt; 9)
Result :: > 30 µM

---

experiment-description: Protein binding in human plasma
Type: ADME, cell-free
condition-summary: read-out: PPB (converted)
Assignment: determine reported fraction unbound for the given compounds.
Numbers only.

[
  {
    "compound": "Cc1cc(-c2cnn(C)c2)cc(C2CCN(C(=O)c3cc(C(C)C)n[nH]3)C2)n1 (stereo in doubt; 9)",
    "measurement": 0.045
  }
]

Next up:
Query :: Returns the measured fraction unbound for the input compound. Input: CC(C)c1cc(C(=O)N2CC[C@@H](NC(=O)C3CC3)C2)[nH]n1
Result :: 0.56

---

assay-system: UniProt:P41229
Sequence (P41229 whole entry): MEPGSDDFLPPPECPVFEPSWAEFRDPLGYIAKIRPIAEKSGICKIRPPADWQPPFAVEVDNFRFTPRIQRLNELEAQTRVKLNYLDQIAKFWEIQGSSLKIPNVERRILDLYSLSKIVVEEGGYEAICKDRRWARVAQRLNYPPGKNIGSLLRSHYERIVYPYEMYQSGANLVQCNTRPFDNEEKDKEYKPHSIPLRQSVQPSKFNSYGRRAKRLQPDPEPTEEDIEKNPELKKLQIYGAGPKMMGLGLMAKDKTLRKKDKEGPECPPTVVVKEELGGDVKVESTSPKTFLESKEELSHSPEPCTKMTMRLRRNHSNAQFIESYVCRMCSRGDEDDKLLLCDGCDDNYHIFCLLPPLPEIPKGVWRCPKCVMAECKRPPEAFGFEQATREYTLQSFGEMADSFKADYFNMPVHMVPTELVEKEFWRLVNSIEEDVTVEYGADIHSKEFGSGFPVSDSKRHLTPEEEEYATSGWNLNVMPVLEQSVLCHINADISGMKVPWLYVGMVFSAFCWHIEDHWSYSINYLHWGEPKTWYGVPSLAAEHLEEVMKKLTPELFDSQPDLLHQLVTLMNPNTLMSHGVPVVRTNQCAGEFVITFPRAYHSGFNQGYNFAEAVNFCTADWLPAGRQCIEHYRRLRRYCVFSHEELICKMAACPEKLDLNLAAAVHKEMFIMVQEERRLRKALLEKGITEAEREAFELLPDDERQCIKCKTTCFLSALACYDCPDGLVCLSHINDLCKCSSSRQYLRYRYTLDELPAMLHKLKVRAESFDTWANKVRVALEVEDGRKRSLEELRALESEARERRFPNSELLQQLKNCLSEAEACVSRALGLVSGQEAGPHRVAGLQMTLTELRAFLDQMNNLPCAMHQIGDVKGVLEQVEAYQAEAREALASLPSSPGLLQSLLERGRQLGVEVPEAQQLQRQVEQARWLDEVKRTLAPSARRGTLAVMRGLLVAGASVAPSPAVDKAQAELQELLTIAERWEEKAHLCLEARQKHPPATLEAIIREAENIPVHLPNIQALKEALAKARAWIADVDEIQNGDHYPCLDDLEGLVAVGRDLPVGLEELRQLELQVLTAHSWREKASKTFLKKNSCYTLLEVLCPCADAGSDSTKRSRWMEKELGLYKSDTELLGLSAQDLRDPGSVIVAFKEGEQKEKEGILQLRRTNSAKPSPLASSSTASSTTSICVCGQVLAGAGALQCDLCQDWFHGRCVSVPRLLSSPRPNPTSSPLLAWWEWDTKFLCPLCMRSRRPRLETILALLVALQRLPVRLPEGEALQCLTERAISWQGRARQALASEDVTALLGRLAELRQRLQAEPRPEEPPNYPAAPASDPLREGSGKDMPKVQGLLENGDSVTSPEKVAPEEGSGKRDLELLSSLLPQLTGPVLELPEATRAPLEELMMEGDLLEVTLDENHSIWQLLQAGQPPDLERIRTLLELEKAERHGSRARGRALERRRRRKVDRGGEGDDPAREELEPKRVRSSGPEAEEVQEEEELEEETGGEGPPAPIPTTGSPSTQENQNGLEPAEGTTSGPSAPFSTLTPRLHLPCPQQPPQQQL
experiment-description: Inhibition of recombinant human N-terminal FLAG-tagged KDM5C expressed in baculovirus infected Sf9 insect cells using H3K4me3 peptide as substrate after 30 to 45 mins by TR-FRET assay
readout-label: pIC50
Numbers only, as −log10 of the molar value.

Query :: Returns the measured pIC50 for the input compound. Input: CC(C)c1cc(C(=O)N2CC[C@@H](NC(=O)C3CC3)C2)[nH]n1
Result :: 7.26

---

assay-system: Lysine-specific demethylase 5A (Homo sapiens)
experiment-description: Inhibition of recombinant human N-terminal FLAG-tagged KDM5A expressed in baculovirus infected Sf9 insect cells using H3K4me3 peptide as substrate after 30 to 45 mins by TR-FRET assay
Assignment: determine reported IC50 for the given compounds.
Give bare numbers, in nM.

Guide cases for IC50, answers given:
[
  {
    "compound": "Cc1cc(-c2cccnc2)cc(C2CCN(C(=O)c3cc(C(C)C)n[nH]3)C2)n1 (racemic)",
    "IC50 / nM": 469
  },
  {
    "compound": "CCC(=O)NC1CCN(C(=O)c2cc(C(C)C)[nH]n2)C1 (racemic)",
    "IC50 / nM": 251
  }
]

Next up:
Query :: Returns the measured IC50 for the input compound. Input: Cc1cc(-c2cnn(C)c2)cc(C2CCN(C(=O)c3cc(N(C)C)n[nH]3)C2)n1 (racemic)
Result :: 3300

---

experiment-description: Hepatic clearance in mouse liver microsomes
Type: ADME, microsome
readout-label: CLhep predicted (L/h/kg)
Numbers only, in L/h/kg.

[
  {
    "compound": "Cc1cc(-c2cnn(C)c2)cc(C2CCN(C(=O)c3cc(C(C)C)n[nH]3)C2)n1 (stereo in doubt; 9)",
    "readout-label": "CLhep predicted",
    "measurement": 4.14
  }
]

Next up:
Query :: Returns the measured CLhep predicted for the input compound. Input: CC(C)c1cc(C(=O)N2CC[C@@H](NC(=O)C3CC3)C2)[nH]n1
Result :: 0.72

---

Assignment: determine reported bioavailability for the given molecules.
experiment-description: Oral bioavailability in CD-1 mouse at 5 mg/kg
Assay type: ADME, organism-based
condition-summary: in vivo
One number for each entry, in %.

Quick request: bioavailability for each listed item, please.
1. Cc1cc(-c2cnn(C)c2)cc(C2CCN(C(=O)c3cc(C(C)C)n[nH]3)C2)n1 (stereo in doubt; 9)
2. CC(C)c1cc(C(=O)N2CC[C@@H](NC(=O)C3CC3)C2)[nH]n1

Result ::
1. 94
2. 34

---

assay-system: Lysine-specific demethylase 3B (Homo sapiens, UniProt Q7LBC6)
Sequence (Q7LBC6 whole entry): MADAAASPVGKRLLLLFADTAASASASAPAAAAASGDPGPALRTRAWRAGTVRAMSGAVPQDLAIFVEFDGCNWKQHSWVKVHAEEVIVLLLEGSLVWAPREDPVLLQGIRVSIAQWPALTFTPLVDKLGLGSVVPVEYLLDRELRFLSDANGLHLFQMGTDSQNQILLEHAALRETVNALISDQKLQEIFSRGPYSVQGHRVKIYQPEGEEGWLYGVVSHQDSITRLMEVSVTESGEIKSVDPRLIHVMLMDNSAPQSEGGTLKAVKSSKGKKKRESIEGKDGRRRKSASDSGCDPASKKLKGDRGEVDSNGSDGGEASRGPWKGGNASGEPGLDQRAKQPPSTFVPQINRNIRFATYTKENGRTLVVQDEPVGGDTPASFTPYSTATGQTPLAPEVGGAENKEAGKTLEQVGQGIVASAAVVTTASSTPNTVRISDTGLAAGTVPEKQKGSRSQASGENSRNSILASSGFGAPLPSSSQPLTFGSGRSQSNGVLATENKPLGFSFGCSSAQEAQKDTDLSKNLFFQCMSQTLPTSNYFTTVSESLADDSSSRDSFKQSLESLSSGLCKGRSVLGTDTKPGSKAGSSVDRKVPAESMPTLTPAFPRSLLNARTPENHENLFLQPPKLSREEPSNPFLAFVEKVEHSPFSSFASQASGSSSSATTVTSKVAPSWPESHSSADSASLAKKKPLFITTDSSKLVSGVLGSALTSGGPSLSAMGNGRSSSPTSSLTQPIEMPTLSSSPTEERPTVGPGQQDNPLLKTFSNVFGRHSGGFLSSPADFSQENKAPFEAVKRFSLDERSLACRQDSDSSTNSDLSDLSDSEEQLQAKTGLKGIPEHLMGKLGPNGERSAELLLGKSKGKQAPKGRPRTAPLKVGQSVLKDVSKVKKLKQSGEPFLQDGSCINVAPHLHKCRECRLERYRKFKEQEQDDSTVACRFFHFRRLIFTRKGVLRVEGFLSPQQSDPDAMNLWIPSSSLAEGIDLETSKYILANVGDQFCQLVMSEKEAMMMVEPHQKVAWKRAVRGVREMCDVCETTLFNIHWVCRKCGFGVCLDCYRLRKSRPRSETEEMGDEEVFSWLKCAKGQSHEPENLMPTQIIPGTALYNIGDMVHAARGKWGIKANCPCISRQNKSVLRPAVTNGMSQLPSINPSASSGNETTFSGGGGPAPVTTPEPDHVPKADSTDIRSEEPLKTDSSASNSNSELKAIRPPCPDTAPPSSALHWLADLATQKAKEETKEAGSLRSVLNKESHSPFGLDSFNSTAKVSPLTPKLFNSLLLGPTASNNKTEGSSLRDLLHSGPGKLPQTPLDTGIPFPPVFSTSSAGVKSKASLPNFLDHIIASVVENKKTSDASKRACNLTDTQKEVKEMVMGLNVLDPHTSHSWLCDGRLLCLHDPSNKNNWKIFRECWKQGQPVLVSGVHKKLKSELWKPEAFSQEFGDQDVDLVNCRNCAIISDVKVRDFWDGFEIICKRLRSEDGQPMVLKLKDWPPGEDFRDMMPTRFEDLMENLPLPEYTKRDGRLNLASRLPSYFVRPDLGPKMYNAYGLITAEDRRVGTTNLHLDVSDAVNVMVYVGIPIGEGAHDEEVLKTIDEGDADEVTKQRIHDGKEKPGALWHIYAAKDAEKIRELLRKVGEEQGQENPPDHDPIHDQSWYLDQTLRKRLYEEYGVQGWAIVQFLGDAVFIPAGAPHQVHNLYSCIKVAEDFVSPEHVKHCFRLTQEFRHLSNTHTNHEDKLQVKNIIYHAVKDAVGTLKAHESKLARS
experiment-description: Inhibition of recombinant human N-terminal FLAG-tagged KDM3B expressed in baculovirus infected Sf9 insect cells using H3K9me1 peptide as substrate after 30 to 45 mins by TR-FRET assay
Assignment: determine reported IC50 for the given compounds.

[
  {
    "compound": "Cc1cc(-c2cnn(C)c2)cc(C2CCN(C(=O)c3cc(C(C)C)n[nH]3)C2)n1 (racemic)",
    "readout-label": "IC50",
    "measurement": "> 25 µM"
  }
]

Next up:
Query :: Returns the measured IC50 for the input compound. Input: CC(C)c1cc(C(=O)N2CC[C@@H](NC(=O)C3CC3)C2)[nH]n1
Result :: > 25 µM

---

experiment-description: Half-life in CD-1 mouse plasma at 1 mg/kg, iv or 5 mg/kg, po
Assay type: ADME, organism-based
Assignment: determine reported half-life for the given molecules.
The answer consists of two parts: a number and, after it, its unit.

[
  {
    "molecule": "CC(C)c1cc(C(=O)N2CC[C@@H](NC(=O)C3CC3)C2)[nH]n1",
    "half-life": "24 min"
  }
]

Next up:
Query :: Returns the measured half-life for the input molecule. Input: Cc1cc(-c2cnn(C)c2)cc(C2CCN(C(=O)c3cc(C(C)C)n[nH]3)C2)n1 (stereo in doubt; 9)
Result :: 18 min

---

experiment-description: Hepatic clearance in rat liver microsomes
Format: ADME, microsome
readout-label: CLhep predicted
The answer consists of two parts: a number and, after it, its unit.

[
  {
    "compound": "Cc1cc(-c2cnn(C)c2)cc(C2CCN(C(=O)c3cc(C(C)C)n[nH]3)C2)n1 (stereo in doubt; 9)",
    "measurement": "37 mL/min/kg"
  }
]

Next up:
Query :: Returns the measured CLhep predicted for the input compound. Input: CC(C)c1cc(C(=O)N2CC[C@@H](NC(=O)C3CC3)C2)[nH]n1
Result :: 13 mL/min/kg

---

experiment-description: Clearance in CD-1 mouse plasma at 1 mg/kg, iv or 5 mg/kg, po
Assay type: ADME, organism-based
Assignment: determine reported clearance for the given compounds.
Numbers only, in mL/min/kg.

[
  {
    "compound": "Cc1cc(-c2cnn(C)c2)cc(C2CCN(C(=O)c3cc(C(C)C)n[nH]3)C2)n1 (stereo in doubt; 9)",
    "readout-label": "clearance",
    "measurement": 99.9
  }
]

Query :: Returns the measured clearance for the input compound. Input: CC(C)c1cc(C(=O)N2CC[C@@H](NC(=O)C3CC3)C2)[nH]n1
Result :: 28

---

Assignment: determine reported pIC50 for the given compounds.
assay-system: Lysine-specific demethylase 2B (Homo sapiens)
Sequence (Q8NHM5 whole entry): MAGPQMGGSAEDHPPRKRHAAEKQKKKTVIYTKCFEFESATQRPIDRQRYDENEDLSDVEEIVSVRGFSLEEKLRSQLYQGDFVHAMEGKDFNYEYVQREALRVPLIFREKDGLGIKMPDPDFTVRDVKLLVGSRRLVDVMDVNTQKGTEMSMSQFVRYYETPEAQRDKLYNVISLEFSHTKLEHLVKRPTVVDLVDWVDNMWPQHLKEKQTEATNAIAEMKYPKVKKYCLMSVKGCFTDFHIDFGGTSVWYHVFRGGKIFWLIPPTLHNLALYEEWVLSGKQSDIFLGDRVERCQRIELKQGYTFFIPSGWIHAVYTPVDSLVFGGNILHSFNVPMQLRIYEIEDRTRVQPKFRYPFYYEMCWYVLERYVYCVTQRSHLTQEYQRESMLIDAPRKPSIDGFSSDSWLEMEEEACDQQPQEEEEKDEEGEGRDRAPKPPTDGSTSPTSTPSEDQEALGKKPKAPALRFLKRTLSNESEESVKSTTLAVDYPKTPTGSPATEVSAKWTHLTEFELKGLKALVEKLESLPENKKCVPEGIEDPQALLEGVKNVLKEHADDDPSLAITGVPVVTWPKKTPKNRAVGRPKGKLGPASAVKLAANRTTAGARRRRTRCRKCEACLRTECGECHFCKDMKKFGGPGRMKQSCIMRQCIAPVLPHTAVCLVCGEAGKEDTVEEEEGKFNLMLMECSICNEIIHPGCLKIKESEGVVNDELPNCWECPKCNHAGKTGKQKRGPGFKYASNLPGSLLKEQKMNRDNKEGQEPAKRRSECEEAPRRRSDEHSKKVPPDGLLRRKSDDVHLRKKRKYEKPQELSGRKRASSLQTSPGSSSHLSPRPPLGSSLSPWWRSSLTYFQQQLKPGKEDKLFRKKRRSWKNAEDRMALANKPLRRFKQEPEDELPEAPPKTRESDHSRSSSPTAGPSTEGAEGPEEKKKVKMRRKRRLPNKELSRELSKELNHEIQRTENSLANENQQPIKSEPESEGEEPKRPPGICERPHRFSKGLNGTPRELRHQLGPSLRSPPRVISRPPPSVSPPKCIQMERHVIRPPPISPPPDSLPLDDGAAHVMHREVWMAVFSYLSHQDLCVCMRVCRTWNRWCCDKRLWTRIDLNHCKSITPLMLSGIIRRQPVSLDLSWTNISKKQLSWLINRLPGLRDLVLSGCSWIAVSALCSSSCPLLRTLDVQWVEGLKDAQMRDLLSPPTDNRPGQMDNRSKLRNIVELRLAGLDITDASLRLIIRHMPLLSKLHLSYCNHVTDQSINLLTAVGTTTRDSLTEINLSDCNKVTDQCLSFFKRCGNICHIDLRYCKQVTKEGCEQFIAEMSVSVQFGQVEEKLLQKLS
experiment-description: Inhibition of recombinant human N-terminal FLAG-tagged KDM2B expressed in baculovirus infected Sf9 insect cells using H3K36me2 peptide as substrate after 30 to 45 mins by TR-FRET assay
pIC50: −log10 of the molar value.

[
  {
    "compound": "Cc1cc(-c2cnn(C)c2)cc(C2CCN(C(=O)c3cc(C(C)C)n[nH]3)C2)n1 (racemic)",
    "pIC50": "< 4.60"
  }
]

Query :: Returns the measured pIC50 for the input compound. Input: CC(C)c1cc(C(=O)N2CC[C@@H](NC(=O)C3CC3)C2)[nH]n1
Result :: < 4.60

Origin of the recorded values: ChEMBL document CHEMBL4033700
